Target: DRB1*1302 (Homo sapiens, UniProt P01903+P01911, A100E/A169T/K41T/L162R/M171V/P40S/Q125H/Q178H/Q39Y/Q99D/R42S/S66N/T262R/V115G/W38E/Y61H)
Sequence (P01903 26-254 limits assumed, other chains not shown): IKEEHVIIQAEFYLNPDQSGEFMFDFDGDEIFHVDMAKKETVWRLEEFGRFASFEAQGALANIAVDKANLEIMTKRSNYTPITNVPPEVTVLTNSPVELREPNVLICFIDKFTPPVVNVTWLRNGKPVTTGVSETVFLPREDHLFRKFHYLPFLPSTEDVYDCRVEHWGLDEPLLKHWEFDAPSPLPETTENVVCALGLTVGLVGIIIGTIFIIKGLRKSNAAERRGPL
Assay: biochemical
Type: binding
No end group written: not given here.
Task for the reader: assign each of the following sequences its reported IC50.

Previously resolved entries follow.
LIQLKCPPILLTTNI [Peptide 89.0038] = > 20 µM
GERLEVDTELSPRLQ [Peptide 90.0048] = > 20 µM
GCWRQTSREPRESTV [Peptide 1543.46] = > 20 µM

Proceed to the following item.
### Prompt Supply IC50 value. Item: YFKYFKEDAKKYSKT [Peptide 90.0253]
### Response > 20 µM
